Target: T1, human DLL3 (ACRO, DLL3-H52H4) (human, UniProt Q9NYJ7 27-479)
T1 construct: bought antigen of the Biacore assay; construct not described
T1 sequence (looked up): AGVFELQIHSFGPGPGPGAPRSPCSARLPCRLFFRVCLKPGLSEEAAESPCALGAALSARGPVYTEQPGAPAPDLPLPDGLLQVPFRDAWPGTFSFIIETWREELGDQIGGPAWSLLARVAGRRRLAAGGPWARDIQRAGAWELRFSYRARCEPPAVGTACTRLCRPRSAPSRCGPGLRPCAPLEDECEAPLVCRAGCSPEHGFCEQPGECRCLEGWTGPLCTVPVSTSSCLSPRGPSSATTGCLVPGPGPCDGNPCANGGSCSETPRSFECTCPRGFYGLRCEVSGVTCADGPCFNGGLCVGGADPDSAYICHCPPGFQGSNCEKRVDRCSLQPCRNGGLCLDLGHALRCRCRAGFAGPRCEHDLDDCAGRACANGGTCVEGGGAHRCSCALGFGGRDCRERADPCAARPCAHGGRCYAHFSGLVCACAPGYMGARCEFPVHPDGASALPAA
Assay: SPR (Biacore 8K), antibody captured on Protein A chip, 1:1 fit
Quick reference for koff among some binders
Output spec: scalar in s⁻¹, unitless text.

{"binder": "hAb100L1H4 (antibody, human IgG1, kappa, V domains shown) VH: EVQLVESGGGLVKPGGSLRLSCAASGFTFSDSGMHWIRQAPGKGLEWVAYISSGSSTIHYADTVKGRFTISRDNAKNSLYLQMNSLRAEDTAVYYCASPLYYYGRSYNGVAYWGQGTTVTVSS VL: DIQMTQSPSSLSASVGDRVTITCHASQNINVWLSWYQQKPGKVPKLLIYKASDLHTGVPSRFSGSGSGTDFTLTISSLQPEDVATYYCQQGQSYPLTFGGGTKVEIKR", "quantity_measured": "koff", "unit_tag": "s⁻¹", "reported_result": 0.000254}

--- query ---
Which koff value is on record for hAb100L2H2 (antibody, human IgG1, kappa, V domains shown) VH: EVQLVESGGGLVKPGGSLRLSCAASGFTFSDSGMHWIRQAPGKGLEWVAYISSGSSTIHYADTVKGRFTISRDNAKNSLYLQMNSLRAEDTAVYYCASPLYYYGRSYNAVAYWGQGTTVTVSS VL: DIQMTQSPSSLSASVGDRVTITCHASQNINVWLSWYQQKPGKIPKLLIYKASDLHTGVPSRFSGSGSGTDFTLTISSLQPEDVATYYCQQGQSYPLTFGGGTKVEIKR ?
0.00037
